The values you see were collected from the supplement of paper PMC9170038.

I'd be grateful if you could share measured apparent KD of MS2 coat protein for these entries.
System: MS2 coat protein
Assay: apparent KD of MS2 coat protein; designed switch direction (-1 OFF switch, 1 ON switch): -1; higher = weaker reporter binding
Details: input ligand: none
Write down the numeric answer in nM and omit the unit.

-- ask What does the record list as apparent KD of MS2 coat protein for AGUACUAUCGCGAAAGCGAUAGUACAAAAAGCAAGUGAAACAUGAGGAUCACCCAUGUCCUCAUUUGCUCGUCUUAU [Mat - Sensor v2 -ver2- JL mod - D89] (Eterna round: R96, puzzle: Sensor v2, turn-off variant 2) ?
-- reply 14.3

-- ask // returns reported apparent KD of MS2 coat protein for input CAGCGACAUGAGGAUCACCCAUGUGGCUUCGUUCCCGCUGGCAAGGAUAUCCAGUCUUCGUGAGAGGAGAAGGUGCAAAAUAAG [Atveso] (Eterna round: R96, puzzle: Exclusion NG 3)
-- reply 49.3

* * *

Tested on: MS2 coat protein
Assay: apparent KD of MS2 coat protein; designed switch direction (-1 OFF switch, 1 ON switch): -1; higher = weaker reporter binding
Details: input ligand: none
Please mark True if the recorded apparent KD of MS2 coat protein is equal to or greater than 40 nM, and False if it falls below.

-- ask Threshold query (apparent KD of MS2 coat protein >= 40 nM) on GCAAGCUUAAUCUGUAUGAACAUGAGGAUCACCCAUGUAUAAGGUAAUUCUUUUGGGUUUUUUAUUGCUCGUCUUAU [JR_STOV1_Sub025] (Eterna round: R97, puzzle: Sensor, turn-off variant 1)
-- reply True

-- ask Does apparent KD of MS2 coat protein meet or surpass 40 nM for GGCCUGGAAGGAUAUACAUGAGGAUCACCCAUGUGAAGCCGGUGCAAAUUGACACGAUGUAGAAGGUCCAGCCG [Eternabot (L1) Solution 92] (Eterna round: R97, puzzle: Exclusion 3) ?
-- reply True

-- ask Dear colleague, could you confirm whether CCUGCGGACAAAGGAUAUUGCGGUGACCGGCUCGGCGUACCGAGCCUACAUGAGGAUCACCCAUGUAAGAAGGUUGUCGCUGGU [JL ViennaUCT Qudice mod 2] (Eterna round: R96, puzzle: Exclusion NG 2) has apparent KD of MS2 coat protein at or above 40 nM?
-- reply False

-- ask Could you tell me if the measured apparent KD of MS2 coat protein of UGAGCUUGAGGAUAUACAAUGAGCUUGAGAAAUCGAGUUCGACAUGAGGAUCACCCAUGUAGAAGGCGAGUUCG [-37.5, -35.6 kcal, A 28% 1 and 1] (Eterna round: R97, puzzle: Exclusion 2) reaches 40 nM or more?
-- reply False

-- ask Is reported apparent KD of MS2 coat protein greater than or equal to 40 nM here: UUUUUAUAUGAAGGAUAUACUUAACAUGAGGAUCACCCAUGUGGUGUUGUGAGUGAGUGAGUUUAGUAGAAGGUCAAUUAGUUU [JMF's solution 12] (Eterna round: R96, puzzle: Exclusion NG 2)
-- reply True

-- ask Does GACAUGAGGAUCACCCAUGUAAGGGAUGAACUUCUGGGUAGCUAGGAUAUGGCUAUAAAGAUGGACCAGAAGGAGCGGACCCUA [Orlaveceat] (Eterna round: R96, puzzle: Exclusion NG 3) have a reported apparent KD of MS2 coat protein of at least 40 nM?
-- reply False

-- ask Given the entry GUUCUUCCUGUAAGGAUAUCCAUGUGUCGGUUUAUGGAGAAGGUACAUGAGGAUCACCCAUGUCACCCGCGUUA (Eterna round: R97, puzzle: Brourd's mod of Exclusion 4) , answer whether its apparent KD of MS2 coat protein meets or surpasses 40 nM.
-- reply False

-- ask Say whether UCUCUGUGAGGAUAUUGAACGACGCCGCUAACGGGCUUGCACAAGAAGGCACAUGAGGAUCACCCAUGUCCCGA [EX4 B.28] (Eterna round: R97, puzzle: Exclusion 4) shows apparent KD of MS2 coat protein of 40 nM or more.
-- reply False

-- ask Kindly determine if apparent KD of MS2 coat protein recorded for UUUAGUUUAGGAUAUGUAGACAUUAACAUGAGGAUCACCCAUGUAGAUCCUGAAUUGGCUACAGAAGGAAGCAUUU [Mod of Brourd 11 - Jieux - Exclusion 5] (Eterna round: R97, puzzle: Exclusion 5) is above or exactly 40 nM.
-- reply True

-- ask Does the sequence CGCUAUAGAGGAUAUACGAGAUCGAAAGAUCGGCGAUCCCUACAUGAGGAUCACCCAUGUAGAAGGCUAUAGCG [Mod 18 - Jieux - Exclusion 2] (Eterna round: R97, puzzle: Exclusion 2) have recorded apparent KD of MS2 coat protein that is 40 nM or more?
-- reply False

-- ask Hi, just wondering whether AGCUGUGGCCGAGGAUAUCACAUGAGGAUCACCCAUGUACAUGAUUAGGCCUGGUAACAGGCUCGUGAGAAGGCGGUCUCAGCA [Eli eng2 - 010] (Eterna round: R96, puzzle: Exclusion NG 2) shows apparent KD of MS2 coat protein of 40 nM or higher.
-- reply False

-- ask Has AAAGGGUGAGGAUAUCCAUCUGGAUCAGACUAGAUCCUGAUGGAGAAGGCACAUGAGGAUCACCCAUGUGAGUU [Eli 4x 4.33] (Eterna round: R97, puzzle: Exclusion 4) a recorded apparent KD of MS2 coat protein greater than or equal to 40 nM?
-- reply True

-- ask Assess whether reported apparent KD of MS2 coat protein for AAGGCGGUAGGAUAUACAUGAGGAUCACCCAUGUACGCGUGGAUCCCUGUGACGUCAAGUAGAAGGGCCAUAAA [Xetesobiar] (Eterna round: R97, puzzle: Exclusion 3) sits at 40 nM or higher.
-- reply False

-- ask Form field: apparent KD of MS2 coat protein at least 40 nM? Entry: GUCAUGAUUGUGAGGAUAUUUCAUAGAUAGAUGUUAGAGAAGGUACAUGAGGAUCACCCAUGUGUGAUCAGACA [Brourd's EX4 #74] (Eterna round: R97, puzzle: Brourd's mod of Exclusion 4)
-- reply True

-- ask Is the recorded value of apparent KD of MS2 coat protein equal to or greater than 40 nM for this sequence? AGUUGGCGAGGAUAUACAUGAGGAUCACCCAUGUGAGAGAUACUGGUGAGGUCGAUUAGUAGAAGGCGCUGACA [Mat X3R4 m15] (Eterna round: R97, puzzle: Exclusion 3)
-- reply True

-- ask Hi, just wondering whether ACGAAGCACGAGGAUAUGACCAUAGUGAUAUGGUCAGAAGGCGUAACAUGAGGAUCACCCAUGUAGUGGCCUCG [Eternabot (Original) Solution 12] (Eterna round: R97, puzzle: Exclusion 6) shows apparent KD of MS2 coat protein of 40 nM or higher.
-- reply False

-- ask Does GAUCACUGAGGAUAUACACAGAUACAAAGUAUCUGAUGGUGACAUGAGGAUCACCCAUGUAGAAGGCAGAGGUC [Omei Ex2 B7] (Eterna round: R97, puzzle: Exclusion 2) have a reported apparent KD of MS2 coat protein of at least 40 nM?
-- reply True

* * *

I'd be grateful if you could share measured apparent KD of MS2 coat protein for these entries.
System: MS2 coat protein
Assay: apparent KD of MS2 coat protein, switch ON state; designed switch direction (-1 OFF switch, 1 ON switch): -1; higher = weaker reporter binding
Details: FMN input: 0 or 200 uM; Eterna round: R93 (includes R88 designs)
Only the number, expressed in nM, is required.

-- ask Fill in the blank: the reported apparent KD of MS2 coat protein of AGGAAACAUGAGGAUCACCCAUGUCAGGAUAUUGAAAAGAAAAGAAAAGAAAGAAGAACAAGAAGGGACAAGAA [Mekh] is ____.
-- reply 27.2

-- ask Look up apparent KD of MS2 coat protein for this sequence: AAGAAGUGAGGAUAUGUAUCAGUAUAGUUGCCUAUACUGAUGUAGAAGGCACAUGAGGAUCACCCAUGUCCUAA [Exclusion4-cac1]
-- reply 21.7

-- ask Requested read-out: apparent KD of MS2 coat protein. Entry: AAAAAACAUGAGGAUCACCCAUGUGAGGAUAUGCGAAAAAAAAAAUAAAAAAAAAAAAGCAGAAGGCACAAAAA [LROPPY Exclusion 1 - v05_deltaG=1.64]
-- reply 37.6

* * *

Field: apparent KD of MS2 coat protein. Provide a value for each of the sequences that follow.
Tested on: MS2 coat protein
Experiment: apparent KD of MS2 coat protein; designed switch direction (-1 OFF switch, 1 ON switch): -1; higher = weaker reporter binding
Settings: input ligand: FMN 200 uM
Report the figure in nM without appending any unit label.

-- ask What does the data say about its apparent KD of MS2 coat protein? Entry: AGCUGACAAGGAUAUACAUGAGGAUCACCCAUGUUGGUCAAGCGACGAUAGUCGCAAUGUAGAAGGUGUCAGCU [E3/8-C1] (Eterna round: R97, puzzle: Exclusion 3)
-- reply 1750

-- ask Any idea what its apparent KD of MS2 coat protein is? The sequence is AUAAAUCAUGUAGGAUAUGCGUGGCGAAGCUAUGCAGAAGGACAUGAGGAUCACCCAUGUUCUAGCGUCUGAGUACAGAUGCAA [Mat - Exclusion NG 1 - Mod of JL - D3] (Eterna round: R96, puzzle: Exclusion NG 1)
-- reply 72.5

-- ask Can you look up the measured apparent KD of MS2 coat protein of AAUCCACAUGAGGAUCACCCAUGUUAGGAUAUCGCGGAGAUCGACUGCGGAAGUUCUGCGAGAAGGAGCGUGAU [Eternabot (L2) Solution 18] (Eterna round: R97, puzzle: Exclusion 1) for me?
-- reply 51.6

-- ask Requested read-out: apparent KD of MS2 coat protein. Entry: CGUUGGUCAGGAUAUGGUGGGCUGGUCGCGCGGCCGGGUGGCUAGAAGGGACAUGAGGAUCACCCAUGUACGGC [excls4-IX] (Eterna round: R96, puzzle: Exclusion 4)
-- reply 60.3

-- ask Given the entry UUAAAUCAUGUAGGAUAUGCGUGGCGAAGCUAUGCAGAAGGACAUGAGGAUCACCCAUGUUCUAGCGUCCGCGUACGGAUGCAA [JL Eng1 1.21 mod 10] (Eterna round: R96, puzzle: Exclusion NG 1) , report its measured apparent KD of MS2 coat protein.
-- reply 144
